In this section we review reported Percent Control values for a set of molecules.
# Test system: BRSK1;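 also: KINOMEscan scanMAX binding as percent activity remaining versus control; lower means stronger binding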
# COND: Compound Concentration (nM):1000
VALUE_TYPE: Percent Control (%)

* CC1=C(C(=O)Nc2ccc3[nH]ncc3c2)C(c2ccc(Cl)c(Cl)c2)CC(=O)N1 (stereo not drawn) [GSK299115A] | 92
* COc1cc2ncnc(Nc3ccc4c(cnn4Cc4ccccc4)c3)c2cc1OC.Cl [GW282449A] | 100
* NS(=O)(=O)c1ccc(N/N=C2\C(=O)Nc3ccc(C(=O)NCc4ccncc4)cc32)cc1 [GW300657X] | 100
* Cl.O=C(Nc1ccc(Oc2ccc3[nH]c(NC(=O)c4ccccc4)nc3c2)cc1)Nc1cc(C(F)(F)F)ccc1F [GW709042A] | 100
* COc1cc(N2CCN(C(C)C)CC2)ccc1Nc1nc(Nc2ccc(F)cc2C(=O)NC[C@@H](O)CO)c2cc[nH]c2n1 [GSK1392956A] | 100
* COc1ccc2[nH]c3c4[nH]c5ccc(OC)cc5c4c4c(c3c2c1)C(=O)NC4=O [GW296115X] | 10
* Cl.c1ccc(Cc2nc3ccc(Nc4ncnc5ccccc45)cc3[nH]2)cc1 [GR269666A] | 100
* COc1ccccc1-c1cc(/C=C2\C(=O)Nc3ncc(Br)cc32)cc(Br)c1O [GW442130X] | 98
* COc1cc(C=NNc2ncnc3c2cnn3-c2ccccc2)ccc1O [GW513184X] | 54
